Kindly state inhibition at 10 µM for each of the entries shown.
- Target system: mGluR5 receptor (Sus scrofa, UniProt I3LUI7)
- Construct: 450 μg of protein from brain homogenate with 5 nM ^3[H]-MPEP; from tissue; host or cells: pig brain halves without medulla, cerebellum and pons
- Sequence (I3LUI7 19-1212): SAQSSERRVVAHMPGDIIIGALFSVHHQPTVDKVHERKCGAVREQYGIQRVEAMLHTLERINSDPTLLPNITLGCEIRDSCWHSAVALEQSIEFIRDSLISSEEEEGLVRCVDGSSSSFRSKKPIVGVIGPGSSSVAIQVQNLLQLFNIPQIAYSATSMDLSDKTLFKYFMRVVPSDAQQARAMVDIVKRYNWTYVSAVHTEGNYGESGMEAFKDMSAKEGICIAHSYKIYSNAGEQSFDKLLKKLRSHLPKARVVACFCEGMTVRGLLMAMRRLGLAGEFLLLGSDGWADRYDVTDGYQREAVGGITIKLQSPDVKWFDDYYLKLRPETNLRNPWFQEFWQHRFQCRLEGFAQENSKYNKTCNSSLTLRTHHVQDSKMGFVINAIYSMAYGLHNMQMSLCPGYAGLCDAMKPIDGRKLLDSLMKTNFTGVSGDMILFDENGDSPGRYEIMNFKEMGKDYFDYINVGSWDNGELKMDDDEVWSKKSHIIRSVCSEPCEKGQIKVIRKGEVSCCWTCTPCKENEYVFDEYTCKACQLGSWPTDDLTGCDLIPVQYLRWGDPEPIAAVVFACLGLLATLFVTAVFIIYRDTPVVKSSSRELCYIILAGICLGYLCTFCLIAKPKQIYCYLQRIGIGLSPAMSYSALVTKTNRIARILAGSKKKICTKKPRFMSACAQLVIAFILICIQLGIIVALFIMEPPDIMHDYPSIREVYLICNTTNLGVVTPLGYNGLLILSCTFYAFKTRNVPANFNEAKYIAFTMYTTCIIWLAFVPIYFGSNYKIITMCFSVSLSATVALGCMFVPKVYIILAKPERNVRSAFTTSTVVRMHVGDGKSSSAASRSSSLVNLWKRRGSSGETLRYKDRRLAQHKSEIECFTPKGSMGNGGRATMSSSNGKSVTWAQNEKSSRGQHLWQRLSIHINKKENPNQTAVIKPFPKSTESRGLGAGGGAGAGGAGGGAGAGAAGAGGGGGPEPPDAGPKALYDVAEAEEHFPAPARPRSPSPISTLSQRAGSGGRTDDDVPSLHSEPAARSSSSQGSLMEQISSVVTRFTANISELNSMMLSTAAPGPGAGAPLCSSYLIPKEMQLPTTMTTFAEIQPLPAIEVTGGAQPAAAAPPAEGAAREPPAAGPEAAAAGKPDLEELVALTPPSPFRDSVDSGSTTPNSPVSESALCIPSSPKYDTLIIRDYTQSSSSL
- Measurement description: [3H]-MPEP mGluR5 receptor binding assay (pig brain homogenate)
- Condition context: 10 μM compound, 5 nM [3H]-MPEP, read-out: % Inhibition of mGluR5 Receptor (pig) [^3H]-MPEP Bond at 10 μM
Numbers only, in %.

For each of the compounds below, state inhibition at 10 µM.
1. O=C(c1ccco1)N(Cc1cccc(-c2ccc3ncnc(NC4CC4)c3c2)c1)C1CC1
2. O=C(c1cnccn1)N(Cc1cccc(-c2ccc3ncnc(NC4CC4)c3c2)c1)C1CC1
3. Cc1cc2ncnc(NC3CC3)c2cc1-c1cccc(CN(C2CC2)S(C)(=O)=O)c1
4. CNc1ncnc2ccc(-c3ccc(F)c(CN(C)C(=O)CN(C)C)c3)cc12
5. COc1ccc(C(=O)N(Cc2cccc(-c3cc(F)c4ncnc(NC5CC5)c4c3)c2)C2CC2)cc1OC

Response given:
91
84
90
40
81

Challenge: Name the recorded inhibition at 10 µM for O=S(=O)(c1cccc2cccnc12)N(Cc1cc(-c2ccc3ncnc(NC4CC4)c3c2)ccc1Cl)C1CC1 .
Response given: 69

----------
- Target system: mGluR5 receptor (human) (Homo sapiens, UniProt P41594)
- Sequence (P41594 21-1212): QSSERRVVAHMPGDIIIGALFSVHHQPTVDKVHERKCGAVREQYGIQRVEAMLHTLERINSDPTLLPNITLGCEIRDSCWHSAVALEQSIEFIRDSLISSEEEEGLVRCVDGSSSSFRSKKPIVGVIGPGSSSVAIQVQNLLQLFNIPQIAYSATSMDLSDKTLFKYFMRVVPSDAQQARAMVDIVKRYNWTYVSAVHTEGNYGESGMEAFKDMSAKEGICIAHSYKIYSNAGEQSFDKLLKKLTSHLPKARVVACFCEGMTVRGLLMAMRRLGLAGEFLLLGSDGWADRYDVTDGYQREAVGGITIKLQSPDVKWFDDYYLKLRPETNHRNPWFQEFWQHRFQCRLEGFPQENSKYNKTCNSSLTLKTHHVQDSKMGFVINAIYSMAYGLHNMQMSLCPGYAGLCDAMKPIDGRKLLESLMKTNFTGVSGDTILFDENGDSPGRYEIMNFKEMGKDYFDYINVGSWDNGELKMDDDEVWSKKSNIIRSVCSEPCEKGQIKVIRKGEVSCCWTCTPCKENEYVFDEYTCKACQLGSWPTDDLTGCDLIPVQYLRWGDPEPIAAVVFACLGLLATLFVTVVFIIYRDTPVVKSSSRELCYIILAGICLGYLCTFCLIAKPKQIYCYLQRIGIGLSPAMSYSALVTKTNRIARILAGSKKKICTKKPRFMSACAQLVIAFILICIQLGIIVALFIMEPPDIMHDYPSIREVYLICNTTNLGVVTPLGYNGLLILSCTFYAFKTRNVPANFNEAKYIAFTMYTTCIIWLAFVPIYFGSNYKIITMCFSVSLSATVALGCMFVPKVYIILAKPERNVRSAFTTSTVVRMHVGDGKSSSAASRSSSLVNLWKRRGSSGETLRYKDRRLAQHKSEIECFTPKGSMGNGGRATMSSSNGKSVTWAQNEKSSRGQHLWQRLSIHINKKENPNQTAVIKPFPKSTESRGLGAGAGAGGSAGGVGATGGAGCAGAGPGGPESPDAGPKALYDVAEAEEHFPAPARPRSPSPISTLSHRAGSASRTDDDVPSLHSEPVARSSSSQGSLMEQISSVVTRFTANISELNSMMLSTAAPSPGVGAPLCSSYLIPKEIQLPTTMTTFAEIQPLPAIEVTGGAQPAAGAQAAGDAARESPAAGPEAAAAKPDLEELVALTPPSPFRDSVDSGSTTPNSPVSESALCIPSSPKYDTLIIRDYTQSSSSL
- Measurement description: Functional Ca2+ influx assay in CHO-hmGluR5 cells (DHPG 10 μM, FLIPR)
Task for the reader: assign each of the following compounds its reported Ki.
Answers are plain numbers, in nM.

Completed entries (count: 2):
Input smiles	Measured endpoint	Observed
CC(=O)N(Cc1cccc(-c2ccc3ncnc(NC4CC4)c3c2)c1)C1CC1	Ki	8.2
CC(=O)N(Cc1cc(-c2ccc3ncnc(NC4CC4)c3c2)cs1)C1CC1	Ki	5.9

Next item in the queue.
Challenge: Query (compound): O=C(c1ccccc1)N(Cc1cc(-c2ccc3ncnc(NC4CC4)c3c2)ccc1F)C1CC1 ; field requested: Ki
Response given: 8

----------
Assign inhibition at 10 µM to each entry below.
- Target system: mGluR5 receptor (Sus scrofa, UniProt I3LUI7)
- Construct: 450 μg of protein from brain homogenate with 5 nM ^3[H]-MPEP; from tissue; host or cells: pig brain halves without medulla, cerebellum and pons
- Measurement description: [3H]-MPEP mGluR5 receptor binding assay (pig brain homogenate)
- Condition context: 10 μM compound, 5 nM [3H]-MPEP, read-out: % Inhibition of mGluR5 Receptor (pig) [^3H]-MPEP Bond at 10 μM
Where a name gives a salt, the structure may show the parent alone.
Give bare numbers, in %.

Study these solved cases before continuing.
Compound	Unit descriptor	inhibition at 10 µM
O=C(c1ccncc1)N(Cc1cc(-c2ccc3ncnc(NC4CC4)c3c2)ccn1)C1CC1	%	62
O=S(=O)(c1cccc2cccnc12)N(Cc1cc(-c2ccc3ncnc(NC4CC4)c3c2)ccc1F)C1CC1	%	53
O=C(c1ccccn1)N(Cc1cc(-c2ccc3ncnc(NC4CC4)c3c2)ccc1Cl)C1CC1	%	78
O=C(c1ccncc1)N(Cc1cccc(-c2ccc3ncnc(NCCc4ccccc4)c3c2)c1)C1CC1	%	59
COCC(=O)N(Cc1cc(-c2ccc3ncnc(NC4CC4)c3c2)ccc1Cl)C1CC1	%	88
CN(C)CC(=O)N(Cc1cccc(-c2cc(F)c3ncnc(NC4CC4)c3c2)c1)C1CC1	%	53

For every item in the list below, what is its measured inhibition at 10 µM?
1. c1cc(CNCc2ccco2)cc(-c2ccc3ncnc(NC4CC4)c3c2)c1 [Example 312, dihydrochloride]
2. CNc1ncnc2ccc(-c3ccc(F)c(CN(C)S(=O)(=O)C(C)C)c3)cc12

Response given:
1. 58
2. 76
